assay: NCI Yeast Anticancer Drug Screen. Data for the wt1 strain (AID 149);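 also: 0% = growth of vehicle-treated wt1 cultures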; details: S. cerevisiae wt1 strain (SPY 50644) growth inhibition; at 1.2 µM; stronger effect = higher value
Compounds without any hit were thinned out: in the full panel of roughly 79,000, 15% have a hit.
REPORTED_METRIC: growth inhibition (%)

smiles=Cn1c(=O)c(-c2ccccc2)c(N=[N+]=[N-])c2ccccc21 unit_abbrev=% recorded_result=-38
smiles=Cc1ccc(S(=O)(=O)NC(=O)NC2=NC(C)(C)N(c3ccc(Cl)c(Cl)c3)C(N)=N2)cc1 unit_abbrev=% recorded_result=-2
smiles=CC(=O)Oc1cc(-c2cc(OC(C)=O)c(OC(C)=O)c3ccccc23)c2ccccc2c1OC(C)=O unit_abbrev=% recorded_result=8
smiles=COc1ccc(NC(=S)N/N=C(\c2ccccc2)c2ccccn2)cc1 unit_abbrev=% recorded_result=-4
smiles=COc1ccc(/C=C2\SC(=S)N(/C=C/c3nc4ccccc4[nH]c3=O)C2=O)cc1OC unit_abbrev=% recorded_result=3

====

assay: NCI Yeast Anticancer Drug Screen. Data for the rad50 strain (AID 155);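 also: 0% = growth of vehicle-only cultures of the same strain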; conditions: S. cerevisiae rad50 strain growth inhibition; at 50.0 µM (retest, dose inferred, filed as 5.0)
The panel holds about 79,000 compounds, 15% with a hit somewhere; the sample as a whole holds those more often. Active and inactive are the calls of the source. No stated cut-off is given here; in the data, active means growth inhibition above about 70%; inactive means the rest.
Classes used: active, inactive

molecule=CC(=O)Nc1ccc2c(c1)C(=Nc1ccc(C(=O)O)cc1)c1ccccc1-2 class=inactive
molecule=S=C(N/N=C/c1ccccn1)Nc1ccc(Cl)cc1 class=active
molecule=[N-]=[N+]=NC1=C(c2ccccn2)C(=O)c2cccc3cccc1c23 class=active
molecule=O=c1ssc2ncccc12 class=active
molecule=CCCCCCCCCCCCCCCCCCNC class=active
molecule=Cc1cc(O)cc(O)c1N=Nc1ccc([N+](=O)[O-])cc1 class=active
molecule=O=C1C=CC(=O)c2c(O)c(Nc3ccc(OC(F)(F)F)cc3)c(Cl)c(O)c21 class=inactive
molecule="COc1ccc(C2c3cc4c(cc3OC(C)(O)C2C)OCO4)c(OC)c1 (centres undefined)" class=inactive
molecule=O=C([O][Sn]([O]C(=O)c1ccccc1)([c]1ccccc1)[c]1ccccc1)c1ccccc1 class=inactive
molecule="COC1=CC(=O)C2C(C1=O)C(c1ccc(Cl)cc1)[C@@H]2C (some centres undefined)" class=active
molecule=S=C(Nc1ccc(Cl)c(Cl)c1)SCc1ccc2c(c1)OCO2 class=active
molecule=CN(C)c1nc2sc3c(c2c(=O)o1)CCCC3 class=inactive
molecule="O=C1OC(=O)C2CCCC3CCCC1C32 (centres undefined)" class=active
molecule=CCOC(=O)c1cc(-c2ccc(Cl)cc2)c([N+](=O)[O-])n1C class=active
molecule=CSC(=S)Nc1cc(C)ccn1 class=active
molecule=CN(C)CCn1c2c3ccccc3ccc2c2oc(=O)c3ccccc3c21 class=active
molecule="CCCN(CCC)CC(O)c1cc(-c2ccc(Cl)cc2)nc2c(C)c(Cl)ccc12 (centres undefined)" class=active
molecule=NC(=S)N/N=C\c1nccc2ccccc12 class=active
molecule=COc1cc(/C=C2\CCc3ccccc3C2=O)cc(OC)c1OC class=inactive
molecule=O=Nc1c(NO)ccc2nn(-c3ccccc3)nc12 class=active
molecule=BrCC[P+](c1ccccc1)(c1ccccc1)c1ccccc1 class=active
molecule=CCCC/C=C/C(CC)(C(=O)OCC)C(=O)OCC class=inactive
molecule="O=C1NC(=O)C2C3C=CC(C3)C12 (centres undefined)" class=inactive
molecule=CCOC(=O)c1cc([N+](=O)[O-])cc([N+](=O)[O-])c1Sc1ncnc2nc[nH]c12 class=active

====

test: NCI Yeast Anticancer Drug Screen. Data for the rad14 strain (AID 159);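 also: 0% = growth of vehicle-treated control cultures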; conditions: S. cerevisiae rad14 strain growth inhibition; at 3.7 µM; stronger effect = higher value
The panel holds about 79,000 compounds, 15% with a hit somewhere; the sample as a whole holds those more often.
REPORTED_METRIC: growth inhibition (%)

compound=CC(C)C1=CC2=C[C@H](O)[C@H]3C(C)(C)CCC[C@]3(C)C2=C(O)C1=O unit_abbrev=% recorded_result=23
compound=N#C/C(=C\c1cccc(OCc2ccccc2)c1)c1ccc([N+](=O)[O-])cc1 unit_abbrev=% recorded_result=-48
compound=N/C(=N\OC(=O)NC(Cl)=C(Cl)Cl)c1cc(C(F)(F)F)cc(C(F)(F)F)c1 unit_abbrev=% recorded_result=-36
compound=Cc1cc(S(=O)(=O)/N=C(/NN)NNc2cccc(C(F)(F)F)n2)c(S)cc1Cl unit_abbrev=% recorded_result=-1
compound="CCCCN1C(=O)N(c2ccc(OCC)cc2)C2N(CCCC)C1C(C)(C)C2(C)C (stereo not drawn)" unit_abbrev=% recorded_result=-6
compound=Cc1cc2c(cc1C(=O)CCC(=O)O)CC1(C2)Cc2cc(C)c(C(=O)CCC(=O)O)cc2C1 unit_abbrev=% recorded_result=2
compound="Nc1ccccc1CC(O)C(=O)O (stereo not drawn)" unit_abbrev=% recorded_result=6
compound=S=C(Nc1ccc(Cl)cc1)SC1CCCCC1 unit_abbrev=% recorded_result=-20
compound=CN(C)c1nc2sc3c(c2c(=O)o1)CCCC3 unit_abbrev=% recorded_result=-3
compound=CC1(C)[C@@H]2CC[C@]1(C)[C@H](OC(=O)CSC#N)C2 unit_abbrev=% recorded_result=-1
compound="COC1=CC(=O)C2C(C1=O)C(c1ccc(Cl)cc1)[C@@H]2C (stereo partly drawn)" unit_abbrev=% recorded_result=12
compound=N#CSc1ccc(S(N)(=O)=O)cc1 unit_abbrev=% recorded_result=-43
compound=COc1ccc(/C=C2\SC(=S)N(/C=C/c3nc4ccccc4[nH]c3=O)C2=O)cc1OC unit_abbrev=% recorded_result=4
compound=NNc1c(F)c(F)cc(F)c1F unit_abbrev=% recorded_result=-25
compound=COc1ccccc1N=NC(C(=O)c1ccccc1)C(=O)c1ccccc1 unit_abbrev=% recorded_result=-29
compound="CCCCCCCCCCCCCCC(C(=O)[O-])[n+]1ccccc1 (stereo not drawn)" unit_abbrev=% recorded_result=13
compound=Cn1c(=O)c2ccccc2c2ccccc21 unit_abbrev=% recorded_result=2
compound=COc1ccc(N=C2C(=O)Nc3ccc(Br)cc32)cc1 unit_abbrev=% recorded_result=-25
compound=CSC(=S)Nc1cc(C)ccn1 unit_abbrev=% recorded_result=-12
compound=CCS(=O)(=O)c1ccc(/C=C/C=N/NC(=S)NCC(C)C)cc1 unit_abbrev=% recorded_result=3
compound=COc1cc2c(cc1[N+](=O)[O-])C(=O)C(Br)(Br)CCC2 unit_abbrev=% recorded_result=44
compound="Cc1cccc2c(C(O)CBr)cc(-c3ccc(Cl)cc3)nc12 (stereo not drawn)" unit_abbrev=% recorded_result=3
compound="OCC1OC(OCC(O)C(O)C(O)C(/C=N/Nc2ccccc2)=N/Nc2ccccc2)C(O)C(O)C1O (stereo not drawn)" unit_abbrev=% recorded_result=1

====

assay: NCI Yeast Anticancer Drug Screen. Data for the wt1 strain (AID 149);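 also: 0% = growth of vehicle-treated wt1 cultures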; details: S. cerevisiae wt1 strain (SPY 50644) growth inhibition; at 3.7 µM; stronger effect = higher value
The panel holds about 79,000 compounds, 15% with a hit somewhere; the sample as a whole holds those more often.
Reported growth inhibition values follow for various compounds
REPORTED_METRIC: growth inhibition (%)

compound="O=C1NC(=O)C2C3C=CC(C3)C12 (stereo unspecified)" reported_metric="growth inhibition" recorded_result=-5
compound="C=CC(C)(O)CCC1C(=C)C(O)CC2C(C)(C)CCCC12C (stereo unspecified)" reported_metric="growth inhibition" recorded_result=-10
compound=CCN(CC)C(C)(C)C(=O)/C=C/c1ccccc1 reported_metric="growth inhibition" recorded_result=5
compound="OC1(c2ccccc2)CSC2=Nc3ccccc3C3CCN1N23 (stereo unspecified)" reported_metric="growth inhibition" recorded_result=-83
compound=COc1ccc(-c2cn(-c3ccc(I)cc3)c3ncnc(N)c23)cc1 reported_metric="growth inhibition" recorded_result=-4
compound=O=C1CSc2cc([N+](=O)[O-])ccc2N1 reported_metric="growth inhibition" recorded_result=12
compound=CCN(CC)[P+](c1ccccc1O)(N(CC)CC)N(CC)CC reported_metric="growth inhibition" recorded_result=-25
compound=CCC(=O)Oc1c(Cl)cc(Cl)c2ccccc12 reported_metric="growth inhibition" recorded_result=-4
compound="CC(C(=O)N1C(=O)N(C(=O)[C@H](C)C(O)c2ccccc2)[C@H](c2ccccc2)[C@H]1c1ccccc1)[C@@H](O)c1ccccc1 (stereo partly specified)" reported_metric="growth inhibition" recorded_result=-1
compound="CCCCCCCCCCCCCCC(C(=O)[O-])[n+]1ccccc1 (stereo unspecified)" reported_metric="growth inhibition" recorded_result=-3
compound=CC(=O)OCCOCNC(=S)N/N=C(\C)c1cnccn1 reported_metric="growth inhibition" recorded_result=-11
compound="C=C1CC(Cn2cc(Br)c(=O)[nH]c2=O)(c2ccc(-c3ccccc3)cc2)OC1=O (stereo unspecified)" reported_metric="growth inhibition" recorded_result=6
compound="Nc1ccccc1CC(O)C(=O)O (stereo unspecified)" reported_metric="growth inhibition" recorded_result=3
compound=N#CN1C2CCC1CC(=O)C2 reported_metric="growth inhibition" recorded_result=-37
compound=Cc1nc(-[n+]2nc(-c3ccncc3)nn2-c2ccccc2)sc1C reported_metric="growth inhibition" recorded_result=-2
compound=NC1=NS(=O)(=O)N=C(N)C1=Cc1ccc([N+](=O)[O-])o1 reported_metric="growth inhibition" recorded_result=-11
compound=O=C(NCCCCNCCCNC(=O)c1cc(-c2ccccc2)nc2ccccc12)c1cc(-c2ccccc2)nc2ccccc12 reported_metric="growth inhibition" recorded_result=2
compound=O=C1C(=O)c2ccccc2C=C1[N+](=O)[O-] reported_metric="growth inhibition" recorded_result=5
compound=COc1ccc(/C=C/C(=O)C(C)(C)Br)cc1 reported_metric="growth inhibition" recorded_result=12
compound=CC(C)/C(Cl)=N\OC(=O)Nc1cccc(Cl)c1 reported_metric="growth inhibition" recorded_result=0
compound="O=C1C2CC[C@@H]3C(=O)C(Cl)(Cl)[C@@H]3CCC2C1(Cl)Cl (stereo partly specified)" reported_metric="growth inhibition" recorded_result=1
compound=S=C(N/N=C(/c1ccccc1)c1ccccn1)N1CCCCCC1 reported_metric="growth inhibition" recorded_result=3
compound="CC(/C=C/c1ccc2c(c1)OCO2)[N+](=O)[O-] (stereo unspecified)" reported_metric="growth inhibition" recorded_result=71
compound=C[C@@H]1C[C@H]2[C@@H]3CCC4=CC(=O)C=C[C@]4(C)[C@@]3(Cl)[C@@H](Cl)C[C@]2(C)[C@@]1(O)C(=O)COP(=O)(O)O reported_metric="growth inhibition" recorded_result=-2
compound="OC1CCCc2c1cc1ccc3cccc4ccc2c1c34 (stereo unspecified)" reported_metric="growth inhibition" recorded_result=-10
compound=CCCCCCc1cc(C(=O)OC/C(C)=N/NC(N)=O)c2ccccc2n1 reported_metric="growth inhibition" recorded_result=1
compound=CCC#CCCCOC(=O)c1cc([N+](=O)[O-])cc([N+](=O)[O-])c1 reported_metric="growth inhibition" recorded_result=-8
compound=CCOC(=O)C1=C(C(=O)c2ccccc2)C(c2ccccc2[N+](=O)[O-])C(C(=O)c2ccccc2)=C(C(=O)OCC)N1 reported_metric="growth inhibition" recorded_result=-1
compound=Cc1ccc(S(=O)(=O)NCCSS(=O)(=O)c2ccc(C)cc2)cc1 reported_metric="growth inhibition" recorded_result=8
compound=Brc1ccc(-c2cc3c(cc2C2SCCS2)OCO3)cc1 reported_metric="growth inhibition" recorded_result=-17
compound=CC(=O)ON1C(=O)c2cccc3cccc(c23)C1=O reported_metric="growth inhibition" recorded_result=17
compound=CN(CCc1ccccn1)c1ccc2c(c1)Cc1ccccc1-2 reported_metric="growth inhibition" recorded_result=7
compound=c1ccc2c(c1)c1ncccc1c1nccnc21 reported_metric="growth inhibition" recorded_result=4
compound="O=[N+]([O-])c1ccc2c(c1)C(N1CCN(CCO)CC1)Cc1ccc(F)cc1S2 (stereo unspecified)" reported_metric="growth inhibition" recorded_result=-3
compound=Oc1ccc2ccccc2c1C(c1ccc(Cl)cc1)c1c(O)ccc2ccccc12 reported_metric="growth inhibition" recorded_result=-17
compound=Cn1c(=O)c2ccccc2c2ccccc21 reported_metric="growth inhibition" recorded_result=-8
compound="CN1c2ccc(Cl)cc2C(=O)NC1c1ccc([N+](=O)[O-])s1 (stereo unspecified)" reported_metric="growth inhibition" recorded_result=1
compound=[N-]=[N+]=NC1=C(c2ccccn2)C(=O)c2cccc3cccc1c23 reported_metric="growth inhibition" recorded_result=4
compound=CCc1ccc(NS(=O)(=O)c2ccccc2)c([N+](=O)[O-])c1 reported_metric="growth inhibition" recorded_result=6
compound=O=Cc1cccc2ccc3ccccc3c12 reported_metric="growth inhibition" recorded_result=-5
compound=Cc1ccc2ccc3cccc4ccc1c2c34 reported_metric="growth inhibition" recorded_result=-2
compound=O=CC=C(c1ccccc1)c1ccccc1 reported_metric="growth inhibition" recorded_result=3
compound=O=C(/C=C\c1ccc(Cl)cc1Cl)c1cccs1 reported_metric="growth inhibition" recorded_result=0
compound=CN(N=O)N1C(=O)SCC(c2ccccc2)(c2ccccc2)C1=O reported_metric="growth inhibition" recorded_result=-5
compound=O=C(/C=C/c1cccc(Br)c1)c1cccs1 reported_metric="growth inhibition" recorded_result=-5
compound=O=C(COC(=O)c1cc(O)c(O)c(O)c1)c1ccc(-c2ccccc2)cc1 reported_metric="growth inhibition" recorded_result=-3
